# Test system: KB
# Assay: Cytotoxicity against human KB cells after 72 hrs by sulforhodamine B and MTT assay
# Format: functional, cell-based
Please respond with rule met when measured IC50 is strictly beneath 800 nM, and with rule not met in all other cases.

Item COc1cc([C@@H]2c3cc4c(cc3[C@@H](O[C@@H]3O[C@@H]5CO[C@@H](C)O[C@H]5[C@H](O)[C@H]3O)[C@H]3COC(=O)[C@H]23)OCO4)cc(OC)c1O [ETOPOSIDE] : IC50 beneath 800 nM, strictly?
rule not met

Item `CC[C@]1(O)C[C@H]2CN(CCc3c([nH]c4ccccc34)[C@@](C(=O)OC)(c3cc4c(cc3OC)N(C=O)[C@H]3[C@@](O)(C(=O)OC)[C@H](OC(C)=O)[C@]5(CC)C=CCN6CC[C@]43[C@@H]65)C2)C1` : IC50 beneath 800 nM, strictly?
rule met

Item `COc1cc2c(O[C@@H]3O[C@H](CO)[C@H](O)[C@H](O)[C@H]3O)c3c(c(-c4ccc5c(c4)OCO5)c2cc1OC)C(=O)OC3` : IC50 beneath 800 nM, strictly?
rule not met

Item `COC[C@H]1O[C@@H](Oc2c3c(c(-c4ccc5c(c4)OCO5)c4cc(OC)c(OC)cc24)C(=O)OC3)[C@H](O)[C@@H](O)[C@@H]1O` : IC50 beneath 800 nM, strictly?
rule not met

Item `COc1cc2c(O[C@@H]3O[C@@H]4COC(C)(C)O[C@H]4[C@H](O)[C@H]3O)c3c(c(-c4ccc5c(c4)OCO5)c2cc1OC)C(=O)OC3` : IC50 beneath 800 nM, strictly?
rule met

====

# Tested on: KB
# Assay: Cytotoxicity against human KB cells after 72 hrs by sulforhodamine B and MTT assay
# Type: functional, cell-based
Please respond with Condition met when measured IC50 is strictly beneath 0.4 µM, and with Condition not met in all other cases.

Item `COc1cc2c(O[C@@H]3O[C@H](CO)[C@@H](O)[C@H](O)[C@H]3O)c3c(c(-c4ccc5c(c4)OCO5)c2cc1OC)C(=O)OC3` : IC50 beneath 0.4 µM, strictly?
Condition not met

Item `COc1cc2c(O[C@H]3O[C@@H](C)[C@@H](OC(C)=O)[C@@H](O)[C@@H]3O)c3c(c(-c4ccc5c(c4)OCO5)c2cc1OC)C(=O)OC3` : IC50 beneath 0.4 µM, strictly?
Condition met

Item `COc1cc2c(O)c3c(c(-c4ccc5c(c4)OCO5)c2cc1OC)C(=O)OC3` : IC50 beneath 0.4 µM, strictly?
Condition not met

Item `COc1cc2c(O[C@@H]3O[C@H](COCc4ccccc4)[C@@H](O)[C@H](O)[C@H]3O)c3c(c(-c4ccc5c(c4)OCO5)c2cc1OC)C(=O)OC3` : IC50 beneath 0.4 µM, strictly?
Condition met

Item `COC[C@H]1O[C@@H](Oc2c3c(c(-c4ccc5c(c4)OCO5)c4cc(OC)c(OC)cc24)C(=O)OC3)[C@H](O)[C@@H](O)[C@H]1O` : IC50 beneath 0.4 µM, strictly?
Condition not met

Item `COc1cc2c(O[C@@H]3OC[C@H](O)[C@H](O)[C@H]3O)c3c(c(-c4ccc5c(c4)OCO5)c2cc1OC)C(=O)OC3` : IC50 beneath 0.4 µM, strictly?
Condition not met

Item `COc1cc2c(O[C@@H]3O[C@@H]4CO[C@@H](C(C)C)O[C@H]4[C@H](O)[C@H]3O)c3c(c(-c4ccc5c(c4)OCO5)c2cc1OC)C(=O)OC3` : IC50 beneath 0.4 µM, strictly?
Condition met

Item `COc1cc2c(O[C@@H]3O[C@H](C)[C@@H](O)[C@H](O)[C@H]3O)c3c(c(-c4ccc5c(c4)OCO5)c2cc1OC)C(=O)OC3` : IC50 beneath 0.4 µM, strictly?
Condition met

Item `COc1cc2c(O[C@@H]3O[C@@H]4CO[C@@H](C)O[C@H]4[C@H](O)[C@H]3O)c3c(c(-c4ccc5c(c4)OCO5)c2cc1OC)C(=O)OC3` : IC50 beneath 0.4 µM, strictly?
Condition met

Item `COc1cc2c(O[C@H]3O[C@@H](C)[C@@H](O)[C@@H](O)[C@@H]3O)c3c(c(-c4ccc5c(c4)OCO5)c2cc1OC)C(=O)OC3` : IC50 beneath 0.4 µM, strictly?
Condition not met

Recorded values, source ChEMBL document CHEMBL1926616.
